# PROTOCOL DESCRIPTION: RAM signaling pathway blockade in yeast – S. cerevisiae, Pdr1DBD-CYC8 efflux-inhibited sensitized strain, primary screen (AID 1298);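 further: 0% = DMSO untreated cells without growth and 100% = 10 µM 1-NA-PP1 full growth; higher means more yeast growth rescued from 5-FOA killing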
# TEST SETTINGS: S. cerevisiae cbk1-as DSE1-URA3 strain, 5-FOA growth OD615, 2 d; at 50 µM; stronger effect = higher value
MEASURED ENDPOINT: RAM network inhibition (%)
Answers are plain numbers, in %.

COMPOUND	RAM network inhibition [%]
Cc1[nH]c(=O)[nH]c(=O)c1S(=O)(=O)N1CCCC(C(=O)N2CCC(Cc3ccccc3)CC2)C1 (stereo not given)	3.66
CCN1CCN(C(=O)CS(=O)(=O)Cc2nc(-c3ccc(C)cc3)oc2C)CC1	2.7
Cc1ccc(N2CCN(S(=O)(=O)c3ccc(F)cc3)CC2)c(C)c1	7.03
C=CCOC(=O)CCP(=O)(CCC(=O)OCC=C)c1ccccc1	-1.29
COc1ccc(N2C(=O)C3CCCN3C2c2ccccc2OC)cc1 (stereo not given)	0.12
COCCn1c(=O)[nH]c2cc(C(=O)NC3CCCCCC3)ccc2c1=O	4.43
CCOC(=O)c1ccccc1NC(=O)CN(c1ccccc1OCC)S(C)(=O)=O	2.46
CCOc1ccccc1C1CC(c2ccc(F)cc2)Nc2nc(N)nn21 (stereo not given)	2.07

Could you tell me RAM network inhibition for each of these compounds? They are listed below.
1. CC1CC(C)CN(C(=O)CSc2nnc(-c3ccc(Cl)cc3)o2)C1 (stereo not given)
2. O=C(O)c1c2c(nc3ccc(S(=O)(=O)N4CCC(C(=O)N5CCCCC5)CC4)cc13)CCCC2
3. CC(=O)c1ccc(N2CCN(C(=O)c3cc4c(-c5ccccc5F)nn(C)c4s3)CC2)cc1
4. O=C(Cn1cc2c(n1)CCCC2)Nc1cc(-c2cccc(Cl)c2)no1
5. Cc1cc2nsnc2c(S(=O)(=O)NCC(=O)O)c1C

Resp:
7.35
1.98
6.5
2.24
0.2

# return RAM network inhibition for each item in the list
1. Cc1cccc(-n2ccnc2SCC(=O)Nc2nnc(C)s2)c1
2. CCNc1nc(C)nc2c1oc1ccccc12
3. COc1ccccc1CNC(=O)CCn1c(=O)oc2ccccc21

Resp:
1: 6.22; 2: 3.64; 3: 5.75

# batch: return RAM network inhibition for each of the 8 compounds below
1. CC1=C(C(=O)OCC2CCCO2)C(c2ccncc2)C2=C(CCCC2=O)N1 (stereo not given)
2. Cc1c(C#N)c2ccccc2n1CC(=O)NCCc1c[nH]c2ccccc12
3. CCOc1ccc(-c2nc(C#N)c(N3CCN(Cc4ccccc4)CC3)o2)cc1
4. Cc1cccc(OCC(=O)Nc2ccc3c(c2)OCO3)c1C
5. COc1ccc(N2CSC3=C(C#N)C(c4cc(OC)ccc4OC)CC(=O)N3C2)c(OC)c1 (stereo not given)
6. C#CC(C)(C)NC(=O)CSc1nc2c(c(=O)n(C)c(=O)n2C)n1CCCC
7. CCOCCn1c(SCc2ccc(C)cc2)nc2c1c(=O)[nH]c(=O)n2C
8. COC(=O)c1sc2ccccc2c1N

Resp:
[1.82, 8.41, 3.33, 7.79, 2.28, 1.45, 4.28, 2.29]

###

Assignment: determine reported growth inhibition for the given compounds.
# PROTOCOL DESCRIPTION: Restrictive medium S. cerevisiae growth inhibition, OD615, pilot screen of yeast lifespan reduction project, restrictive growth control (AID 706);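 further: modified DeaD lifespan yeast strain shifted to restrictive glucose medium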
# TEST SETTINGS: OD615, 48 h, at 10 µM, stronger effect = higher value
One number for each entry, in %.

These solved cases illustrate the format of a correct answer.
COMPOUND	UNIT OF MEASUREMENT	growth inhibition
COc1ccccc1N1CCN(Cc2cc(Br)c(O)c3ncccc23)CC1	%	98.6
CSc1cccc(NC(=O)CN(c2ccc(C)cc2C)S(C)(=O)=O)c1	%	-9.39

List the reported growth inhibition of each compound below.
1. CC1=C(C(N)=O)C(c2ccccc2)n2nc(-c3cccs3)nc2N1 (stereo not drawn)
2. CCCCOC(=O)C(C)Oc1ccc(=O)n(-c2ccccc2)n1 (stereo not drawn)
3. CCOC(=O)Cn1c(=O)oc2cc(S(=O)(=O)Nc3cccc(C)c3)ccc21
4. O=C(CCN1CCc2ccccc2C1)Nc1ccccc1
5. COc1cccc(-c2cc(N)nn2C(=O)Nc2ccc(Cl)cc2)c1

Resp:
2.11
-6.44
-22.1
-8.03
-29.3

The reported numbers originate from PubChem BioAssay.
